Where these numbers come from: PubChem BioAssay AID248

I'd be grateful if you could share measured T/C for these entries.
# System: L1210 leukemia ip in BDF1 mice, survival T/C
# assay_notes: NCI In Vivo Anticancer Drug Screen. Data for tumor model L1210 Leukemia (intraperitoneal) in B6D2F1 (BDF1) mice
# cond: endpoint: mean survival time; dose: 50.0 mg/kg/injection; schedule: Q04DX003 (ip); vehicle: saline with Tween-80; higher = longer survival
Inconclusive results and toxic doses are left out.

# compound `CCCCCCC(=C/c1ccccc1)/C=N/NC(=O)c1ccc[n+](C)c1` ; its T/C = 116 % of control

# compound `c1cc2c3c(c1)nc(CCCc1nc4cccc5c4n1CCC5)n3CCC2` ; its T/C = 96 % of control

# compound NC(=O)c1c(Br)c(Br)c(Br)c(Br)c1C(=O)O (tested in a mixture with another compound) ; its T/C = 96 % of control

# compound CNC(C)COc1ccccc1 (stereo not given) ; its T/C = 91 % of control

# compound `CCOC(=O)C1=C(O)c2c(sc(C)c2-c2ccccc2)N(S(=O)(=O)c2ccc(C)cc2)CC1` ; its T/C = 98 % of control

---

# Tested on: L1210 leukemia ip in BDF1 mice, survival T/C
# assay_notes: NCI In Vivo Anticancer Drug Screen. Data for tumor model L1210 Leukemia (intraperitoneal) in B6D2F1 (BDF1) mice
# cond: endpoint: mean survival time; dose: 400.0 mg/kg/injection; schedule: Q01DX001 (ip); vehicle: saline; higher = longer survival
Toxic doses and inconclusive results are not listed.
measured_metric: T/C

# compound `O=C(/C(=C\c1ccccc1)Oc1ccc([N+](=O)[O-])cc1)c1ccccc1` ; its T/C = 95 % of control

# compound `COc1ccc(Cl)cc1/C=C/C=O` ; its T/C = 102 % of control

# compound `CNC(=O)Oc1c(C)occc1=O` ; its T/C = 105 % of control

# compound `CC(C)CNC(=O)Nc1ccc(Cl)c(Cl)c1` ; its T/C = 95 % of control

# compound `CCOC(=O)COc1ccc(N2C(N)=NC(N)=NC2(C)C)cc1` ; its T/C = 97 % of control

# compound `CCCCC#CCl` ; its T/C = 94 % of control

# compound `COc1cc(CC(=O)N(C)C)c([N+](=O)[O-])cc1OC` ; its T/C = 93 % of control

# compound `CCOC(=O)/C=C(/N)c1c(C)[nH]c2ccccc12` ; its T/C = 87 % of control

# compound `CCC(CC)c1ccc2ccccc2c1` ; its T/C = 101 % of control

# compound `C=C[Si](C)(OCC)OCC` ; its T/C = 101 % of control

# compound `CN(C)c1n[nH]c(=O)[nH]c1=O` ; its T/C = 93 % of control

# compound O=C(O)C1CC=CCC1C(=O)NC(O)C(Cl)(Cl)Cl (stereo not drawn) ; its T/C = 95 % of control

# compound `c1ccc(-c2nc3nncn3nc2-c2ccccc2)cc1` ; its T/C = 98 % of control

---

# Test system: L1210 leukemia ip in BDF1 mice, survival T/C
# assay_notes: NCI In Vivo Anticancer Drug Screen. Data for tumor model L1210 Leukemia (intraperitoneal) in B6D2F1 (BDF1) mice
# cond: endpoint: mean survival time; dose: 200.0 mg/kg/injection; schedule: Q04DX003 (ip); vehicle: Klucel (hydroxypropylcellulose) (HPC); higher = longer survival
Toxic doses and inconclusive results are not listed.
measured_metric: T/C

# compound `CC(=O)C(=Cc1ccccc1Cl)C(C)=O` ; its T/C = 91 % of control

# compound `CC1(C)Cc2ccccc2C(c2ccccn2)=N1` ; its T/C = 112 % of control

# compound `N#CCc1[nH]nc(N)c1C#N` ; its T/C = 93 % of control

# compound `CCOc1ccccc1NC(=O)c1cccc(C(=O)Nc2ccccc2OCC)c1` ; its T/C = 96 % of control

# compound CCCCC(CC)C(O)C(C)C(C)O (centres undefined) ; its T/C = 98 % of control

# compound `O=C1CNc2ccccc2N1` ; its T/C = 92 % of control

# compound `COc1ccccc1NC(=O)Nc1ccc(SC)cc1` ; its T/C = 103 % of control

# compound `O=C(O)COc1ccccc1Cl` ; its T/C = 104 % of control

# compound `COc1ccc(C(=O)c2cccs2)cc1` ; its T/C = 94 % of control

# compound CCOC(=O)CCC(NC(=O)c1ccc2c(c1)CCCN2C=O)C(=O)OCC (centres undefined) ; its T/C = 103 % of control

# compound `O=C(Nc1ccccc1F)c1ccccc1` ; its T/C = 98 % of control

# compound `CCNC(=O)Nc1ccc(C)cc1C` ; its T/C = 96 % of control

# compound `Cc1cc(S(=O)(=O)F)ccc1NC(=O)NCc1ccc([N+](=O)[O-])cc1Cl` ; its T/C = 101 % of control

# compound `CC(=O)CC(=O)Nc1cccc(C)c1C` ; its T/C = 106 % of control
